The origin of these recorded values is the supplement of paper PMC12667976.

B1: library; numbered along this chain (parent)
chain: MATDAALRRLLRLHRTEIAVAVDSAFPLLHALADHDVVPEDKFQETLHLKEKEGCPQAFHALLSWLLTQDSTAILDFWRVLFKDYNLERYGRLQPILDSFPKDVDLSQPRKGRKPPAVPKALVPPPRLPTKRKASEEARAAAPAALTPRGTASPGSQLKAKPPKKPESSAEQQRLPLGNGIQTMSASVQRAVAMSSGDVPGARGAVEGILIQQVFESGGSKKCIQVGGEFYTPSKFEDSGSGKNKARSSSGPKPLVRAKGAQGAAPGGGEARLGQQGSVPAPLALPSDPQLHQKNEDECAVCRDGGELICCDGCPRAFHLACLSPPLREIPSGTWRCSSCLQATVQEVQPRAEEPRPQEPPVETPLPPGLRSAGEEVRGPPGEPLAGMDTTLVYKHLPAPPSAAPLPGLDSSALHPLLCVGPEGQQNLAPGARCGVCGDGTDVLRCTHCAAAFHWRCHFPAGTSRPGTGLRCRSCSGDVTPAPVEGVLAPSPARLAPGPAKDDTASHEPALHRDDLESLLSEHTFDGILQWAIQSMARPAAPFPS

# Variants of: B1
# assay.remarks: AIRE transcriptional activation functional score (insulin promoter-GFP; nonsense median 0, synonymous median 1) (normalised score); higher = higher AIRE activity (more reporter activation)
# assay.context: with insulin promoter-GFP reporter in HEK293
Assign met whenever AIRE transcriptional activation functional score does not fall below 0.5; assign not met whenever it does.

For this variant, is measured AIRE transcriptional activation functional score 0.5 or higher? L409E met

# bool: AIRE transcriptional activation functional score of G208K >= 0.5 met

Can E329Q be said to have AIRE transcriptional activation functional score at or above 0.5? not met

Could you tell me if the measured AIRE transcriptional activation functional score of S402C reaches 0.5 or more? met

Given the entry C299P , answer whether its AIRE transcriptional activation functional score meets or surpasses 0.5. met

For this variant, is measured AIRE transcriptional activation functional score 0.5 or higher? H458E met

# bool: AIRE transcriptional activation functional score of C310G >= 0.5 met

Please check the record S185A and state if its AIRE transcriptional activation functional score is at or above 0.5. met
